These measurements were taken from patent US9284315B2.

# procedureSummary: In vivo pharmacokinetics in rats, gavage (PO)
# cond: male, SD, rat, plasma, 4 mg/kg
Overview of recorded Cmax for various molecules
Could you write the number and then its unit?

Recorded Cmax, per entry:
[
  {
    "molecule": "CC(=O)Nc1ccc(-c2ccc3ncc4c(c3n2)N(c2cccc(C(F)(F)F)c2)C(=O)N(C)C4)cn1",
    "dataValue": "34.9 ng/mL"
  },
  {
    "molecule": "COc1ccc(-c2ccc3ncc4c(c3c2)n(-c2ccc(N3CCNCC3)c(C(F)(F)F)c2)c(=O)n4C)cn1 [BGT-226, reference compound]",
    "dataValue": "61.1 ng/mL"
  },
  {
    "molecule": "CN1Cc2cnc3ccc(-c4ccc(N)nc4)nc3c2N(c2cccc(C(F)(F)F)c2)C1=O",
    "dataValue": "198 ng/mL"
  },
  {
    "molecule": "CN1Cc2cnc3ccc(-c4cnc(N)nc4)nc3c2N(c2cccc(C(F)(F)F)c2)C1=O",
    "dataValue": "147 ng/mL"
  }
]

# Cmax lookup, item Cn1c(=O)n(-c2ccc(C(C)(C)C#N)cc2)c2c3cc(-c4cnc5ccccc5c4)ccc3ncc21 [BEZ-235, reference compound] 229 ng/mL

---

# procedureSummary: in vivo
# cond: male, SD, rat, iv, 2 mg/kg
valueType: AUC
Could you give the number and then its unit, please?

Give its AUC value. Item: COc1ccc(-c2ccc3ncc4c(c3n2)N(C2CCN(C(=O)[C@@H](C)O)CC2)C(=O)N(C)C4)cn1 154 ng·h/mL

---

# system: mTOR (Homo sapiens (Human))
# procedureSummary: mTOR inhibitory activity, Method 1 activity test
# Format: biochemical
# cond: 4EBP1 50 nM, ATP 10.8 μM
Measured pIC50 of individual entries
In simple prose, pIC50 is minus the logarithm base ten of a concentration in moles per litre.

[
  {
    "compound": "CN1Cc2cnc3ccc(-c4cnc5ccccc5c4)nc3c2N(c2ccc(C(C)(C)C#N)cc2)C1=O",
    "system": "mTOR (Homo sapiens (Human))",
    "pIC50": 7.18
  },
  {
    "compound": "COc1ncc(-c2ccc3ncc4c(c3n2)N(c2cccc(C(F)(F)F)c2)C(=O)N(C)C4)cn1",
    "system": "mTOR (Homo sapiens (Human))",
    "pIC50": 7.52
  },
  {
    "compound": "COc1ccc(-c2ccc3ncc4c(c3c2)n(-c2ccc(N3CCNCC3)c(C(F)(F)F)c2)c(=O)n4C)cn1 [BGT-226, reference compound]",
    "system": "mTOR (Homo sapiens (Human))",
    "pIC50": 8.70
  },
  {
    "compound": "CN1Cc2cnc3ccc(-c4cnc(N)nc4)nc3c2N(c2cccc(C(F)(F)F)c2)C1=O",
    "system": "mTOR (Homo sapiens (Human))",
    "pIC50": 8.07
  },
  {
    "compound": "CN1Cc2cnc3ccc(-c4ccc(C#N)nc4)nc3c2N(c2cccc(C(F)(F)F)c2)C1=O",
    "system": "mTOR (Homo sapiens (Human))",
    "pIC50": 7.62
  },
  {
    "compound": "CC(=O)Nc1ccc(-c2ccc3ncc4c(c3n2)N(c2cccc(C(F)(F)F)c2)C(=O)N(C)C4)cn1",
    "system": "mTOR (Homo sapiens (Human))",
    "pIC50": 7.41
  },
  {
    "compound": "CN1CCN(c2ccc(-c3ccc4ncc5c(c4n3)N(c3cccc(C(F)(F)F)c3)C(=O)N(C)C5)cn2)CC1",
    "system": "mTOR (Homo sapiens (Human))",
    "pIC50": 7.51
  }
]

Param readout= pIC50; system= mTOR (Homo sapiens (Human)); entry= CN1Cc2cnc3ccc(-c4ccc(N)nc4)nc3c2N(c2cccc(C(F)(F)F)c2)C1=O ; returns value. 8.05
